Tgt: T1, human serum albumin (human, UniProt P02768 25-609)
T1 construct: Immobilised on SPR chips; also added in solution in the FcRn occupancy assays; also called HSA; humanSA
Experiment Notes: SPR Biacore 8K+ SCK, albumin on chip, pH 5.5
Reported koff by item:
The figure you give is taken to be in s⁻¹; do not add the unit.

The following binders have reported results that may help.
Ask: Read off the recorded koff for Alb23 G100A (VHH, VHH alone) VHH: EVQLLESGGGLVQPGGSLRLSCAASGFTFRSFGMSWVRQAPGKGPEWVSSISGSGSDTLYADSVKGRFTISRDNSKNTLYLQMNSLRPEDTAVYYCTIGASLSRSSQGTLVTVSS
Reply: 0.0184

Ask: Tell me koff reported for Alb23 M34A (VHH, VHH alone) VHH: EVQLLESGGGLVQPGGSLRLSCAASGFTFRSFGASWVRQAPGKGPEWVSSISGSGSDTLYADSVKGRFTISRDNSKNTLYLQMNSLRPEDTAVYYCTIGGSLSRSSQGTLVTVSS
Reply: 0.0837

Ask: Given the binder Alb23 G99A (VHH, VHH alone) VHH: EVQLLESGGGLVQPGGSLRLSCAASGFTFRSFGMSWVRQAPGKGPEWVSSISGSGSDTLYADSVKGRFTISRDNSKNTLYLQMNSLRPEDTAVYYCTIAGSLSRSSQGTLVTVSS , write its reported koff.
Reply: 0.0473

Ask: Please report koff for the following binder: Alb23 L59A (VHH, VHH alone) VHH: EVQLLESGGGLVQPGGSLRLSCAASGFTFRSFGMSWVRQAPGKGPEWVSSISGSGSDTAYADSVKGRFTISRDNSKNTLYLQMNSLRPEDTAVYYCTIGGSLSRSSQGTLVTVSS
Reply: 0.0268

API: the following record is the query input.
Ask: Consider the binder Alb23 G33A/S101A (VHH, VHH alone) VHH: EVQLLESGGGLVQPGGSLRLSCAASGFTFRSFAMSWVRQAPGKGPEWVSSISGSGSDTLYADSVKGRFTISRDNSKNTLYLQMNSLRPEDTAVYYCTIGGALSRSSQGTLVTVSS and give its recorded koff.
Reply: 0.0672
